Data credit: paper PMC9572513

- assay notes: MTT cytotoxicity against human pulp cell (HPC)
- Format: cell-based
- condition details: human, human pulp cells (HPC), non-malignant oral cells
- Method: The method for evaluating 2a–f and 3a–e against human oral squamous cell carcinoma (OSCC) cell lines (Ca9-22, HSC-2, HSC-3, HSC-4) and human non-malignant oral cells [human gingival fibroblast (HGF), human periodontal ligament fibroblast (HPLF), and human pulp cell (HPC)] have been reported previously, except the length of time of this bioassay was extended from 24 h to 48 h. […]
Listed here are molecules together with their documented log10(CC50 at 48 h).
readout name: log10(CC50 at 48 h) (log10 of the value in µM)

# molecule, observed
measured = [
    ("CCN(CC)Cc1cc(C=C2CNCC(=Cc3ccc(OC)c(OC)c3)C2=O)ccc1O.Cl.Cl [Compound 2b]", 0.36),
    ("COc1ccc(C=C2CNCC(=Cc3ccc(O)c(CN(C)C)c3)C2=O)cc1OC.Cl.Cl [Compound 2a]", 0.36),
    ("Cc1ccc(/C=C2\\CNC/C(=C\\c3ccc(O)c(CN4CCN(C)CC4)c3)C2=O)cc1 [Compound 3d]", 0.78),
    ("CN1CCN(Cc2cc(/C=C3\\CNC/C(=C\\c4ccc([N+](=O)[O-])cc4)C3=O)ccc2O)CC1 [Compound 3e]", 0.28),
    ("COc1ccc(/C=C2\\CNC/C(=C\\c3ccc(O)c(CN4CCCC4)c3)C2=O)cc1OC [Compound 2c]", 1.64),
    ("CN1CCN(Cc2cc(/C=C3\\CNC/C(=C\\c4ccc(F)cc4)C3=O)ccc2O)CC1 [Compound 3b]", 0.63),
]
